System: Bacillus subtilis ATCC 6633
Type: cell-based
testParameters: ATCC 6633, 24 h
Description: Gram-Positive Bacteria: • Staphylococcus aureus IFO 12732 • Staphylococcus aureus COL1 (MRSA) • Bacillus cereus IFO 3001 • Bacillus subtilis ATCC 6633 • Micrococcus luteus IFO 12708 That is, each sample was diluted with a liquid bouillon medium (mfd. by DIFCO, product name “NUTRIENT BROTH Dehydrated”) to a peptide concentration of 500, 250, 125, 62.5, 31.3, 15.6, 7.8, 3.9, 1.9, 1.0 or 0.5 […] and dispensed in 150 μl portions into a 96 well microplate. […]
Ends that are not written are not given here.
MIC values by entry

Below: 3 substances and their reported MIC.
substance: RRLLRKWWWKRLL-NH2 (C-terminus assumed) [Sample 2, RRLLRKWWWKRLL]
MIC: 1.95 mg/L

substance: RLLRKWWWKRLL-NH2 (C-terminus assumed) [Sample 1, RLLRKWWWKRLL]
MIC: 1.95 mg/L

substance: LLRKWWWKRLL-NH2 (C-terminus assumed) [compound 1, LLRKWWWKRLL, reference compound]
MIC: 0.98 mg/L

// next entry
Consider RRRLLRKWWWKRLL-NH2 (C-terminus assumed) [Sample 3, RRRLLRKWWWKRLL] . Its measured MIC is 1.95 mg/L
